Assign melting point to each entry below.
Form entry: value (°C) — number only.

-- ask What does the record list as melting point for Cc1cccc(NC(=O)NC(C(=O)N(CC(=O)OC(C)(C)C)c2ccccc2)c2ccccc2)c1 (racemic) ?
-- reply 178

-- ask What does the record list as melting point for COc1ccc(Sc2nc(-c3ccccc3)n(Cc3cc4c(cc3Cl)OCO4)c2C=O)cc1 ?
-- reply 116

-- ask What does the record list as melting point for COC(=O)[C@H](C)NC(=O)c1cccc([N+](=O)[O-])c1N ?
-- reply 133

-- ask What does the record list as melting point for Cc1cccc2c(=O)[nH]c(=O)[nH]c12 ?
-- reply 170
